Data provenance is the supplement of paper PMC7877785.

Each record here notes measured self-splicing fitness (ln).
experiment: self-splicing fitness, log relative to wild type (ln ratio); higher = more splicing; Tetrahymena group I intron in knt gene, E. coli kanamycin selection, DiMSum; sequences stand for … in CUCUCU…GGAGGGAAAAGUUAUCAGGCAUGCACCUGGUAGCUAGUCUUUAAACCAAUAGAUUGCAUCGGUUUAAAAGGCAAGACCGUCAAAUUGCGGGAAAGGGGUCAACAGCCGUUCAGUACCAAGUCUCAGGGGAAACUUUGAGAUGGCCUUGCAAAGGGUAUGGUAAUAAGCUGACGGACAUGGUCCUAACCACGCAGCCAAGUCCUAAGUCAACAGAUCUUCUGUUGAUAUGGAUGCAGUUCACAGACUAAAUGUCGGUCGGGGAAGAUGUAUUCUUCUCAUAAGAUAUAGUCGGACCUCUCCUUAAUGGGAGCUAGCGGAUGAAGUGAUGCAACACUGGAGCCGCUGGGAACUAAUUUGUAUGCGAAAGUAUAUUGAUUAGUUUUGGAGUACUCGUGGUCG; conditions: 30 °C;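 further: selection with 25 µg/mL kanamycin versus none on LB agar overnight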
// return a plain number; no unit text

// sample AGUUAGCAAUAUUACGACCU , its self-splicing fitness (ln) was -0.34

// sample CGAUAGCAAUAUUACGAUUC , its self-splicing fitness (ln) was -3.87

// sample ACGUAGCAAUAUUACGGAGC , its self-splicing fitness (ln) was -3.42

// sample AUUAAGCAAUAUUACGUGUC , its self-splicing fitness (ln) was -3.58

// sample CACGAGCAAUAUUACGAUAU , its self-splicing fitness (ln) was -2.64

----------
Each record here notes measured self-splicing fitness (ln).
assay: self-splicing fitness, log relative to wild type (ln ratio); higher = more splicing; Tetrahymena group I intron in knt gene, E. coli kanamycin selection, DiMSum; sequences stand for … in CUCUCU…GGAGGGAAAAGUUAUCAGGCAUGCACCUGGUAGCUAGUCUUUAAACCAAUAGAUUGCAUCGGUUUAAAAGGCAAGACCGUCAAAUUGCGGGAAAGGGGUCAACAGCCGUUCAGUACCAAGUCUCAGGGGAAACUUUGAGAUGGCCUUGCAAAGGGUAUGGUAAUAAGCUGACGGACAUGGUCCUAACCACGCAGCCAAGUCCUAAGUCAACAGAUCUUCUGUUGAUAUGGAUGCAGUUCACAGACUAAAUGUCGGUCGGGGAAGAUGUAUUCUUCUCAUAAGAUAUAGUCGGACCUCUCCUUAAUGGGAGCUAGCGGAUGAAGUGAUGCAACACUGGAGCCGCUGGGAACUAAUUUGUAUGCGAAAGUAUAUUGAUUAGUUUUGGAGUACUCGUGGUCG; details: 30 °C
// return a plain number; no unit text

In the examples that follow, each entry is paired with its recorded self-splicing fitness (ln).
* CAAAAGCAAUAUUACGUGGA | -3.4
* AUUUAGCAAUAUUACGCGUU | -2.01
* GGAGAGCAAUAUUACGAACU | -1.36

// sample ACUAAGCAAUAUUACGGUGU , its self-splicing fitness (ln) was -3.49

// sample GAGCAGCAAUAUUACGCUCG , its self-splicing fitness (ln) was -2.11

// sample AAUCAGCAAUAUUACGCGCA , its self-splicing fitness (ln) was -0.8

// sample GUGUAGCAAUAUUACGUGCG , its self-splicing fitness (ln) was -1.8

// sample UUACAGCAAUAUUACGUAGG , its self-splicing fitness (ln) was -1.12

// sample UGAGAGCAAUAUUACGGUAU , its self-splicing fitness (ln) was -3.07

// sample AUCUAGCAAUAUUACGGGAU , its self-splicing fitness (ln) was -2.92

// sample UUGUAGCAAUAUUACGUCGC , its self-splicing fitness (ln) was -3.54

// sample GCACAGCAAUAUUACGACCU , its self-splicing fitness (ln) was -0.6

// sample CUCCAGCAAUAUUACGGAAC , its self-splicing fitness (ln) was -4.55

// sample AAAGAGCAAUAUUACGUAAA , its self-splicing fitness (ln) was -3.11

// sample CGGCAGCAAUAUUACGACUG , its self-splicing fitness (ln) was -1.74

// sample AGAUAGCAAUAUUACGCGUU , its self-splicing fitness (ln) was -2.34

// sample GACUAGCAAUAUUACGGCCG , its self-splicing fitness (ln) was -0.632

----------
assay: self-splicing fitness, log relative to wild type (ln ratio); higher = more splicing; Tetrahymena group I intron in knt gene, E. coli kanamycin selection, DiMSum; sequences stand for … in CUCUCU…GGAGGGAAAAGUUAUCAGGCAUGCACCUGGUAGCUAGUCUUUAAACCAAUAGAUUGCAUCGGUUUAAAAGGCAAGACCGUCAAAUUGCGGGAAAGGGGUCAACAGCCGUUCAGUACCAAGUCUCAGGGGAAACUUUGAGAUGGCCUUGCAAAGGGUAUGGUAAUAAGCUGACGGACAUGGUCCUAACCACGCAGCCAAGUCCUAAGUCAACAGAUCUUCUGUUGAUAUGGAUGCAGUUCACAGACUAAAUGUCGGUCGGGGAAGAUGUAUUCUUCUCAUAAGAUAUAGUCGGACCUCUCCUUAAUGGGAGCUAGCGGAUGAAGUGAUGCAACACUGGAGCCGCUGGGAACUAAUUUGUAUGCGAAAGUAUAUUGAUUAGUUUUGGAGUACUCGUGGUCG; details: 37 °C
// label = true if self-splicing fitness (ln) is not less than -1, otherwise false

Please review the following examples before continuing.
- AUCCAGCAAUAUUACGAGAG: false
- UCCCAGCAAUAUUACGAUCG: false
- GCCGAGCAAUAUUACGCGUA: true
- GUGUAGCAAUAUUACGUCAG: false

stdin: self-splicing fitness (ln) >= -1 for CUUAAGCAAUAUUACGCGUG ?
stdout: false

stdin: self-splicing fitness (ln) >= -1 for GUGCAGCAAUAUUACGGCGA ?
stdout: true

stdin: self-splicing fitness (ln) >= -1 for ACGUAGCAAUAUUACGCUAG ?
stdout: true

stdin: self-splicing fitness (ln) >= -1 for AGGUAGCAAUAUUACGUCUA ?
stdout: true

stdin: self-splicing fitness (ln) >= -1 for AUGGAGCAAUAUUACGAAUU ?
stdout: false

stdin: self-splicing fitness (ln) >= -1 for UGUGAGCAAUAUUACGCGAG ?
stdout: false

----------
Each record here notes measured self-splicing fitness (ln).
assay: self-splicing fitness, log relative to wild type (ln ratio); higher = more splicing; Tetrahymena group I intron in knt gene, E. coli kanamycin selection, DiMSum; sequences stand for … in CUCUCU…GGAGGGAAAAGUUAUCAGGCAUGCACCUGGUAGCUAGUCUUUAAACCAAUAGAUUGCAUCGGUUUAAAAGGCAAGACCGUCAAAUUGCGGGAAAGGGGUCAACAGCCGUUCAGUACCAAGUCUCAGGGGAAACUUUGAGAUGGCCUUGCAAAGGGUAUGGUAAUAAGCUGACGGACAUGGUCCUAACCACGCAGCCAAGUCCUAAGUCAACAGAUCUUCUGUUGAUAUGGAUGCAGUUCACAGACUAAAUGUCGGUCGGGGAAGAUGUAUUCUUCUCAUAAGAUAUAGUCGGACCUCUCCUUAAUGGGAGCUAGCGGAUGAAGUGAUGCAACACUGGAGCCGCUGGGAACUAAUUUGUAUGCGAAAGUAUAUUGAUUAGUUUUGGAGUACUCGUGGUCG; settings: 30 °C

// sample UAUGAGCAAUAUUACGACGG , its self-splicing fitness (ln) was -2.02

// sample AGGAAGCAAUAUUACGAGGC , its self-splicing fitness (ln) was -3.01

// sample ACUUAGCAAUAUUACGUAUG , its self-splicing fitness (ln) was -3.35

// sample CCGCAGCAAUAUUACGAGUA , its self-splicing fitness (ln) was -3.31

// sample UGCGAGCAAUAUUACGAGUA , its self-splicing fitness (ln) was -0.846

// sample AGCGAGCAAUAUUACGUUUG , its self-splicing fitness (ln) was -3.44

----------
experiment: self-splicing fitness, log relative to wild type (ln ratio); higher = more splicing; Tetrahymena group I intron in knt gene, E. coli kanamycin selection, DiMSum; sequences stand for … in CUCUCU…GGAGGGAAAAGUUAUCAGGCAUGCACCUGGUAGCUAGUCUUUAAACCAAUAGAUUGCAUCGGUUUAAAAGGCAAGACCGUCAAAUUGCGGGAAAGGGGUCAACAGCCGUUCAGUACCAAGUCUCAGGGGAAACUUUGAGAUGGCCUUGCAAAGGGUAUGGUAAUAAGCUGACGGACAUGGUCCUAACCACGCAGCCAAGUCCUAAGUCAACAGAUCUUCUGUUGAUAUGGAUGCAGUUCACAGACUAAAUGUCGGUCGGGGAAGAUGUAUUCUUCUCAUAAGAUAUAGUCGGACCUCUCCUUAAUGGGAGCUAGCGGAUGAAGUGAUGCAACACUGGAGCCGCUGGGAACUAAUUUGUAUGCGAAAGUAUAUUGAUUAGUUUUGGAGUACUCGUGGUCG; conditions: 30 °C
Each record here notes measured self-splicing fitness (ln).
// return a plain number; no unit text

In the examples that follow, each entry is paired with its recorded self-splicing fitness (ln).
• AACUAGCAAUAUUACGGAAC = -2.99
• GUCUAGCAAUAUUACGACGG = -3.01
• CUGCAGCAAUAUUACGUCGA = -3.05

Kindly consider the entry below.
// sample CAACAGCAAUAUUACGGAUC , its self-splicing fitness (ln) was -3.08
